- protocolSummary: viability gain of MRP-1-high H69AR cells under doxorubicin, pilot screen, MRP-1 activator project, CellTiter-Glo, duplicate (AID 807);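 note: compound pretreatment 18-22 h then 72 h combined with doxorubicin; 0% = doxorubicin alone and 100% = vehicle without doxorubicin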
- studyConditions: H69AR viability with doxorubicin, CellTiter-Glo luminescence; at 10 µM; active compounds read high
readoutName: viability increase (%)
Answer with a number only, understood to be in %.

Note to self: viability increase recorded for COCCNC(=O)CS(=O)Cc1nc(-c2ccc(OC)cc2)oc1C (stereo unspecified) was 0.42

# viability increase of N#CC1=C(SCC(=O)Nc2ccccc2)NC(=O)CC1c1ccc(O)cc1 (stereo unspecified) = -2.43

The compound CCOc1ccc(-c2cc(CCCC(=O)NCc3cccnc3)no2)cc1 showed viability increase equal to -3.69

Documented viability increase of COc1ccc(CC(=O)Nc2cc(C)c3c(=O)oc4ccccc4c3n2)cc1 : -4.14

# viability increase (compound: C=C1c2ccc(C)cc2NC(=O)N1c1ccccc1 ) is -3.76

For CCN1CCN(CCNC(=O)C2CCCN(Cc3nc(-c4cccc(Cl)c4)oc3C)C2)CC1 (stereo unspecified) the compound record lists viability increase as -6.96

Note to self: viability increase recorded for Cc1ccccc1C(=O)Nc1nnc(-c2ccc(F)cc2)o1 was -2.91

The reported value for COc1ccc(CNc2oc(C)nc2C#N)cc1 in terms of viability increase is -1.84

Looking up O=C1CC(c2ccccc2)C(C(=O)O)N1 (stereo unspecified) , I found its viability increase recorded as 1.77

COc1cccc(-c2nc(CS(=O)(=O)CC(=O)NCc3ccccc3)c(C)o2)c1 yielded viability increase of -0.84

# viability increase of CCCN(CCC)S(=O)(=O)c1cc(Br)cc2c1N(C(=O)CC)CC2 = -4.77

---

- protocolSummary: inhibitors of the yeast RAM network, pilot screen, dse1pr::URA3 reporter, 5-FOA selection (AID 869);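 note: 0% = DMSO wells with no growth and 100% = 10 µM 1-NA-PP1 with full growth; RAM network block rescues cells from 5-FOA so hits raise OD615 growth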
- studyConditions: S. cerevisiae dse1pr::URA3 5-FOA growth, OD615, 2 d; at 10 µM; active compounds read high; strain carries analog-sensitive mutant Cbk1 kinase
readoutName: inhibition (%)
Only the number, expressed in %, is required.

Sample O=C(c1cc(-c2cccs2)on1)N1CCCc2ccccc21 ; inhibition observed: 2.58

inhibition for CCN1CCN(C(=O)C2c3cc(OC)c(OC)cc3C(=O)N(C)C2c2ccc(SC)cc2)CC1 (stereo unspecified) is 0.995

Looking up COCCOC(=O)c1c(C)oc2ccc(OCC=C(C)C)cc12 , I see its inhibition listed as 0.175

inhibition recorded for this compound, COc1cc2[nH]c(=O)n(CCCC(=O)N3CC=C(c4ccccc4)CC3)c(=O)c2cc1OC , is 0.355

Entry COc1ccc(S(=O)(=O)Cc2ccc(C(=O)N3CCN(C(=O)c4ccco4)CC3)o2)cc1 , inhibition reported as 2.06

// sample COc1ccccc1-n1c(SCC(=O)Nc2nnc(C)s2)nc2c(c1=O)SCC2 , its inhibition was 0.81

Briefly, inhibition measured for Cc1nc2sc(C(c3ccco3)N3CCC(Cc4ccccc4)CC3)c(O)n2n1 (stereo unspecified) : 1.14

Summary for this compound, COc1ccc(CC(=O)N2CC3(C)CC2CC(C)(C)C3)cc1OC (stereo unspecified) : inhibition is 2.62

What the record says about Cc1nnc(Sc2nc3c(c(=O)[nH]c(=O)n3C)n2CCc2ccccc2)s1 : inhibition is 0.16

In plain terms, CCOC(=O)N1CCc2c(sc(NC(=O)c3ccc(S(=O)(=O)N4CCCC4)cc3)c2C#N)C1 has a documented inhibition of 2.04

Data point: CC(=O)N1CCC(Nc2ccc(C)cc2)CC1 ; inhibition = -0.41

Record CC1CCc2sc3nc(N4CCN(CCO)CC4)n4ncnc4c3c2C1 (stereo unspecified) . Reported inhibition: 0.655

Item: COc1ccc(NC(=O)N(CCCN2CCOCC2)Cc2cccnc2)c(OC)c1 | inhibition: 1.03

CCC(=O)Nc1cccc(NC(=O)c2cc3ccccc3o2)c1 yielded inhibition of 1.2

compound CC(Oc1ccc(Cl)cc1)C(=O)Nc1nccs1 (stereo unspecified) , inhibition observed: 1.31

Recorded result, CCN1C(=O)CS/C1=N\c1nccs1 , inhibition: 1.64

Value of measured inhibition for the entry O=C(COc1ccccc1)Nc1nnc(-c2ccccc2)o1 : 1.29

compound CC1CCCC(C)N1C(=O)Cn1c(=O)sc2ccccc21 (stereo unspecified) , inhibition observed: 0.87

Record CC1CCCN(C(=O)CNC(=O)Cn2ccc3ccccc3c2=O)C1 (stereo unspecified) . Reported inhibition: 2.08

Lab note: measured inhibition of COc1ccc(CN2CCN(C(=O)c3cccs3)CC2)cc1Br was 0.72

Lab note: measured inhibition of COc1ccc(NC(=O)c2cncc(Br)c2)c(S(=O)(=O)N2CCOCC2)c1 was 2.21

Documented inhibition of CN1CCN(Cc2c(O)ccc3occ(C(=O)c4ccccc4)c23)CC1 : 1.56

inhibition measured on CCOC(=O)Cc1csc(SCn2nnc3ccccc3c2=O)n1 = 2.31

Lab note: measured inhibition of O=C(OCC(=O)N1CCN(C(=O)c2ccco2)CC1)C1=COCCO1 was 2.21

inhibition reported for this compound O=C(CCS(=O)(=O)c1ccccc1)Nc1nccs1 : 1.48

Entry COC(=O)c1[nH]c2cc(OC)ccc2c1NC(=O)c1ccc2c(c1)OCO2 , inhibition reported as 1.74

Lab note: measured inhibition of Cc1onc(-c2ccccc2Cl)c1C(=O)N1CCN(c2cccc(Cl)c2)CC1 was 2.73

The reported value for CC1(C)Cc2ccccc2-c2nc(NCCCO)n(-c3ccccc3)c(=O)c21 in terms of inhibition is 1.07

Entry O=C1CC(c2nc3ccccc3[nH]2)CN1c1ccccc1F (stereo unspecified) , inhibition reported as 0.355

Short answer for O=C(O)CSc1cccc2cccnc12 : inhibition was 1.17

Recorded result, O=C1C(=C2CCCCC2)SC(=S)N1Cc1ccco1 , inhibition: 0.825

Recorded inhibition (compound C=CCn1c(C)cc(C(=O)COc2nncc3ccccc23)c1C ): 2.32

// sample CC(=O)NC(=S)c1c(N)n(Cc2ccccc2)c(=O)n(C)c1=O , its inhibition was 0.92

According to the records, this compound Cc1ccccc1CN1CCN(CC(=O)NCc2ccccn2)C1=O displays inhibition of -0.32

Noted for CCC(=O)c1ccc(N2CCN(C(=O)COc3ccc(F)cc3)CC2)c(F)c1 : its inhibition reads 1.71

Looking up COc1ccc(OC)c(NC(=O)c2ccc(CN3CCOCC3)cc2)c1 , I found its inhibition recorded as 1.52

Notebook: COc1cccc(C2CC(c3ccc(Cl)cc3)n3nc(N)nc3N2)c1 (stereo unspecified) , inhibition read as 1.63

Item: Cc1cc(C)n2nc(S(=O)(=O)NCCc3ccccc3)nc2n1 | inhibition: 2.72

Form field inhibition, entry O=C1CC(N2CCN(Cc3ccc4c(c3)OCO4)CC2)C(=O)N1Cc1ccc(N2CCCC2=O)cc1 (stereo unspecified) : 2.29

Record COc1cc2c(cc1OC)C(C(=O)Nc1cccc(C)n1)C(c1cccnc1)N(C)C2=O (stereo unspecified) . Reported inhibition: 0.58

Data point: COc1ccccc1C(=O)n1nc(C)cc1C ; inhibition = -0.645

Lab note: measured inhibition of CNC(=O)c1ccsc1NC(=O)c1ccc(Cl)s1 was 1.08

The reported value for CC1CCN(CCCNC(=O)c2cc3c(=O)n(C)c4ccccc4c3n2C)CC1 in terms of inhibition is -0.26

inhibition reported for this compound Cn1c(NC(=O)c2cc(Br)ccc2Cl)cc(=O)n(C)c1=O : 1.64

Lab note: measured inhibition of CSc1nc(SCC(=O)NCc2ccco2)c2c3c(sc2n1)COC(C)(C)C3 was 2.8

Field inhibition (entry COC(=O)CN(c1ccccc1)S(=O)(=O)c1ccccc1 ) reads 1.01

---

- protocolSummary: Restrictive medium S. cerevisiae growth inhibition, OD615, pilot screen of yeast lifespan reduction project, restrictive growth control (AID 706);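 note: modified DeaD lifespan yeast strain shifted to restrictive glucose medium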
- studyConditions: OD615, 48 h, at 10 µM, active compounds read high
readoutName: growth inhibition (%)
Note: unit % is implicit; provide only the numeric part.

# growth inhibition of COC(=O)C1=C(C)N(Cc2cccnc2)C(=O)C1 = -8.8

Lab book: growth inhibition of Cn1c(CSc2nc3ccc(Br)cc3[nH]2)nc2ccccc21 noted as 12.1

Record summary for NS(=O)(=O)c1ccc(CCNC(=O)NC2(C(F)(F)F)Oc3ccccc3O2)cc1 : reported growth inhibition = -6.81

Field growth inhibition (entry COc1ccc(C2C(C(=O)c3ccco3)=C(O)C(=O)N2CCc2ccccc2)cc1OC (stereo not given) ) reads 7.54

Noted for CCOC(=O)c1c(NC(=O)C2CCCN2S(=O)(=O)c2cccc3nsnc23)sc(C)c1C (stereo not given) : its growth inhibition reads -0.39

---

- protocolSummary: Restrictive medium S. cerevisiae growth inhibition, OD615, pilot screen of yeast lifespan reduction project, restrictive growth control (AID 706);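 note: modified DeaD lifespan yeast strain shifted to restrictive glucose medium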
- studyConditions: OD615, 48 h, at 10 µM, active compounds read high
For each record, write down the corresponding growth inhibition.
Express it in %; write the number only.

// sample c1ccc(Nc2nc(N3CCCCC3)nc(N3CCNCC3)n2)cc1 , its growth inhibition was -6.95

growth inhibition for O=C(c1ccccc1)c1ccc(OC(=O)N2CCOCC2)cc1 is 4.65

Given item CCOC(=O)Nc1cc(C(=O)OCC)c(C)nc1C , the value recorded as its growth inhibition is -10

For this compound ( CSc1nc(C)nc2c1c(=O)n(C)c(=O)n2C ), measured growth inhibition is 6.23

The reported growth inhibition of the compound CC(CNCc1ccc2c(c1)OCO2)NCc1ccc2c(c1)OCO2 (stereo unspecified) was -7.7

compound CCOc1ccc(-n2c(Cc3cc(=O)[nH]c(=O)[nH]3)nnc2SCc2cccnc2)cc1 , growth inhibition observed: 5.83

For CC1(C)Cc2ccccc2-c2nc(NCCCO)n(-c3ccccc3)c(=O)c21 the compound record lists growth inhibition as -18.9

Looking up N#CC1=C(SCC(=O)Nc2ccccc2)NC(=O)CC1c1ccc(O)cc1 (stereo unspecified) , I see its growth inhibition listed as -10.5

growth inhibition measured on CC(=O)NC(C)c1nc2ccccc2n1Cc1ccccc1F (stereo unspecified) = -3.36

Form: compound = Cc1c(N=c2c(=O)c3ccccc3c2=O)c(=O)n(-c2ccccc2)n1C ; growth inhibition = -8.74

Documented growth inhibition of CCOC(=O)C(CCC#N)(CCC#N)C(=O)OCC : -5.42
